Parameter pIC50: see the listing below.
molecular target: Phosphatidylinositol 4,5-bisphosphate 3-kinase catalytic subunit alpha isoform (Homo sapiens); assay: Inhibition of PI3Kalpha by fluorescence polarization assay
Sequence (P42336 whole entry, canonical isoform): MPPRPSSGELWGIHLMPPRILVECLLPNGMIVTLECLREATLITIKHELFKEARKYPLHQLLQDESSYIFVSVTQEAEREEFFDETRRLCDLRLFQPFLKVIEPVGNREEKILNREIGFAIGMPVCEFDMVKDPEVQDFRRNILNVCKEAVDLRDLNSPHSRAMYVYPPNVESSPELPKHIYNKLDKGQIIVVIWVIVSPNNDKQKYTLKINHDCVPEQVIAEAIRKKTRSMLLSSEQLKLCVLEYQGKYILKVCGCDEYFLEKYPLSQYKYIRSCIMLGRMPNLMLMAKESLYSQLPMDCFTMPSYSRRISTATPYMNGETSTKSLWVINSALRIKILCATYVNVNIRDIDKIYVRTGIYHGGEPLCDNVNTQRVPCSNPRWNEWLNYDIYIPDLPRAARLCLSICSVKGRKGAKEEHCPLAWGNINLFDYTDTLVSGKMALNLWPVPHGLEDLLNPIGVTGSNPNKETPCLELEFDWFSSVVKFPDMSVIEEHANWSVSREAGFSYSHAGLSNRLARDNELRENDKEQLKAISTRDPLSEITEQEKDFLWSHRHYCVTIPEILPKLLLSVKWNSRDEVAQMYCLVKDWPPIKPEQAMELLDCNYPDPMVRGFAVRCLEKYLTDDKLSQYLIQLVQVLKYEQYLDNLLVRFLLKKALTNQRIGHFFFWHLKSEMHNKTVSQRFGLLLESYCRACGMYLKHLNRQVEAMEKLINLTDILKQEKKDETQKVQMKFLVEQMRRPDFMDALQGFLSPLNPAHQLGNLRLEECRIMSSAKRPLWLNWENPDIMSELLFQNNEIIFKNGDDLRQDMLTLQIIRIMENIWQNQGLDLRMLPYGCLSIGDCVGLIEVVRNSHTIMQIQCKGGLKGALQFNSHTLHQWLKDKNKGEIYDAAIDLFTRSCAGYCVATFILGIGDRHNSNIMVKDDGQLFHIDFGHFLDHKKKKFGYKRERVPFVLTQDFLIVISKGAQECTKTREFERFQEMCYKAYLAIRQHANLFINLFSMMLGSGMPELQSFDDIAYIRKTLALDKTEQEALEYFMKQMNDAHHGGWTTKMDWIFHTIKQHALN
On this scale, pIC50 is minus log10 of a concentration expressed in M (mol/L).

cpd_smiles=O=C(c1cccnc1)N1CCC(n2ncc3c(N4CCOCC4)nc(-c4ccc5[nH]ccc5c4)nc32)CC1 parameter_measured=pIC50 quantitative_readout=5.23
cpd_smiles=O=C(c1ccccc1)N1CCC(n2ncc3c(N4CCOCC4)nc(-c4cccc(O)c4)nc32)CC1 parameter_measured=pIC50 quantitative_readout=7.30

QUERY: What measured pIC50 goes with O=C(c1cccnc1)N1CCC(n2ncc3c(N4CCOCC4)nc(-c4cccc(O)c4)nc32)CC1 ?
RESULT: 7.07

---

experiment: Clearance in rat hepatocyte assessed as half life; format: ADME, cell-based, Liver; settings: hepatocytes
parameter_measured: half-life (min)
Lab book: enter the figure in min, no units written.

QUERY: What measured half-life goes with Oc1cccc(-c2nc(N3CCOCC3)c3cnn(C4CCN(Cc5ccccc5)CC4)c3n2)c1 ?
RESULT: 13
